Target: murine acetylcholinesterase (mAChE) (Mus musculus)
Sequence (P21836 32-614): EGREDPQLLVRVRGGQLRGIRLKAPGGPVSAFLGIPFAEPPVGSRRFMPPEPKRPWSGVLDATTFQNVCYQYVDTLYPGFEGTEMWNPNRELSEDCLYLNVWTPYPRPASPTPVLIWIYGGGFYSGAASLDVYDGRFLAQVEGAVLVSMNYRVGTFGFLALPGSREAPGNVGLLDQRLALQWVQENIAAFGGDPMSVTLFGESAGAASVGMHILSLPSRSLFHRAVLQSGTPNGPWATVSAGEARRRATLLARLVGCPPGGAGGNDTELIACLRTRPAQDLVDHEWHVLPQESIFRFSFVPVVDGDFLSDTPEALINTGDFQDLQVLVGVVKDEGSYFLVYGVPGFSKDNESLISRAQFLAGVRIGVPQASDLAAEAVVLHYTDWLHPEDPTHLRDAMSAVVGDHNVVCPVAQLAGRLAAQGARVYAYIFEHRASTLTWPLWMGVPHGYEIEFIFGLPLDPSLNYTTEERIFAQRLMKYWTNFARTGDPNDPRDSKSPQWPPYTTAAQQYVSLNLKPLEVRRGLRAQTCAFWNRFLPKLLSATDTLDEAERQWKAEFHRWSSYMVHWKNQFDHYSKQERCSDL
Experiment: biochemical
Format: biochemical
Please respond with reported mAChE RA (%) for every item in the list.
Give just the number in %; leave the unit off.

Reported mAChE RA (%) for "CCCCc1ccc(C#Cc2ccc(CN(CC3CC3)c3ccc(O)c(C(=O)O)c3)cc2)cc1" : what is it?
2

Reported mAChE RA (%) for "CC(C)(C)CCN(Cc1ccc(C#Cc2ccc(F)cc2)cc1)C(=O)c1ccc(O)c(C(=O)O)c1" : what is it?
13

Reported mAChE RA (%) for "CCCCc1ccc(C#Cc2ccc(CN(C(=O)CC(C)(C)C)c3ccc(F)c(C(=O)O)c3)cc2)cc1" : what is it?
2

Reported mAChE RA (%) for "CC(C)(C)c1ccc(C#Cc2ccc(CN(CC3CC3)c3ccc(O)c(C(=O)O)c3)cc2)cc1" : what is it?
99

Reported mAChE RA (%) for "CCCCCCN(Cc1ccc(C#Cc2ccc(C(C)(C)C)cc2)cc1)c1ccc(F)c(C(=O)O)c1" : what is it?
22

Reported mAChE RA (%) for "CC(C)(C)CCN(Cc1ccc(C#Cc2ccc(F)cc2)cc1)C(=O)c1ccc(C(=O)O)cc1" : what is it?
100

Reported mAChE RA (%) for "Cc1ccc(C#Cc2ccc(CN(CCC(C)(C)C)c3ccc(O)c(C(=O)O)c3)cc2)cc1" : what is it?
100

Reported mAChE RA (%) for "CCCCCCN(Cc1ccc(C#Cc2ccc(CCCC)cc2)cc1)c1ccc(F)c(C(=O)OC)c1" : what is it?
19

###

Please respond with reported IC50 for every item in the list.
Target: MurA (Escherichia coli)
Sequence (P0A749 whole entry): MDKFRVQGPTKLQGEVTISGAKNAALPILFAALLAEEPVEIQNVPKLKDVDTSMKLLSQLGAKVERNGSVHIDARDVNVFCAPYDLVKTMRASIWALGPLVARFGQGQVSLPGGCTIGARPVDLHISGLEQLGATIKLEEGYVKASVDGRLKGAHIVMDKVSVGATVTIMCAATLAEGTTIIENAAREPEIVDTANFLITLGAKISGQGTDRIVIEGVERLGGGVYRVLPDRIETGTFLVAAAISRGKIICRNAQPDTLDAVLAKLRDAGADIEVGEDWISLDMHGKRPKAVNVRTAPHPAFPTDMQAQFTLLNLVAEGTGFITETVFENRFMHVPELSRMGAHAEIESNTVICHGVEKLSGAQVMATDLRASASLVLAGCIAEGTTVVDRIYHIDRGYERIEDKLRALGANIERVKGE
Assay: Inhibition of MurA, colorimetric malachite green method
Type: biochemical, bacterial
Description: Inhibition of Mur enzymes was monitored with the colorimetric malachite green method, which measured orthophosphate formed during reaction. The mixtures with a final volume of 50 µL contained: MurA: 50 mM HEPES-NaOH, pH 7.8, 0.005% Triton X-114, 200 µM uridine-diphosphate-N-acetylglucosamine, 100 µM phosphoenolpyruvate, purified MurA, and 50 or 100 µM of each compound tested. All compounds were soluble in the assay mixtures containing 5% DMSO (v/v). […]
Give just the number in µM; leave the unit off.

Reported IC50 for "CCCCCCN(Cc1ccc(C#Cc2ccc(CCCC)cc2)cc1)C(=O)c1ccc(O)c(C(=O)O)c1" : what is it?
6

Reported IC50 for "CCCCCCN(Cc1ccc(C#Cc2ccc(CCCC)cc2)cc1)c1ccc(O)c(C(=O)O)c1" : what is it?
7

Reported IC50 for "CCCCCCN(Cc1ccc(C#Cc2ccc(CCCC)cc2)cc1)c1ccc(F)c(C(=O)O)c1" : what is it?
7
